target.entity: CLDN18.2 expressed in mouse healthy stomach tissue (mouse) (UniProt P56857)
test.name: flow cytometry, live cells from healthy mouse stomach, antibody 4 µg/ml
value.kind: % of positive healthy stomach cells (Mouse 2) (%)
The answer is to be given in %; state only the numeric part.

Kindly note the recorded % of positive healthy stomach cells (Mouse 2) for hCl1b (antibody, human IgG1, kappa, V domains shown) VH: QVQLVQSGAEVKKPGASVKVSCKASGYTFTDYAMHWVRQAPGQRLEWMGWINTYTGKPTYSQKFQGRVTITRDTSASTAYMELSSLRSEDTAVYYCARAVFYGYTMDAWGQGTLVTVSS VL: DIQMTQSPSSLSASVGDRVTITCRASEDIYSNLAWYQQKPGKAPKLLIFSVKRLQDGVPSRFSGSGSGTDFTLTISSLQPEDFATYYCLQGSNFPLTFGQGTKVEIKR , which is 0.13
